Provenance of the data: patent US20230278972A1

# Plant response rating, Kochia listing for each entry below
Tested on: kochia (Bassia scoparia)
experimental_protocol: Test A postemergence, kochia
Type: in vivo
condition_details: Postemergence, 500 g ai/ha; visual injury approx. 10 days; 0 to 100 scale (0 no effect, 100 complete control)
Keep the answer to the number alone.

Known Plant response rating, Kochia results, listed for orientation:
1. Cc1cc(Cl)c(NS(=O)(=O)C(F)(F)F)cc1C(=O)N1CCOCC1C (stereo not shown) : 60
2. Cc1cc(Cl)c(C(=O)N(C)C)cc1N(S(=O)(=O)C(F)(F)F)S(=O)(=O)C(F)(F)F : 70
3. Cc1cc(C)c(N2CC3(CCCCC3)OC2=O)cc1NS(=O)(=O)C(F)(F)F : 50

Attention now shifts to the item below.
Lookup: Which Plant response rating, Kochia is reported with kochia (Bassia scoparia) for this entry: "Cc1cc(C)c(N(S(=O)(=O)C(F)(F)F)S(=O)(=O)C(F)(F)F)cc1N1CCC2(CCCC2)C1=O" ?
Found: 50

* * *

Tested on: soybean (Glycine max)
experimental_protocol: Test A1 postemergence, soybean
Type: in vivo
condition_details: 31 g ai/ha, postemergence; 0 to 100 scale (0 no effect, 100 complete control)
# Soybean plant response rating listing for each entry below

1. C#CCN(C)C(=O)c1cc(N(COC(=O)C(C)(C)C)S(=O)(=O)C(F)(F)F)c(C)c(C)c1C : 60
2. Cc1c(C2=NOC3(CCCC3)C2)cc(N(COC(=O)C(C)(C)C)S(=O)(=O)C(F)(F)F)c(C)c1C : 40
3. Cc1c(NS(=O)(=O)C(F)(F)F)cc(C2=NOC3(CCCC3)C2)c(C)c1C : 50
4. Cc1cc(C)c(N2CC3(CCCCC3)CC2=O)cc1NS(=O)(=O)C(F)(F)F : 50
5. Cc1cc(C)c(N(COC(=O)C(C)(C)C)S(=O)(=O)C(F)(F)F)cc1N1CCC2(CCC(C(F)(F)F)CC2)C1=O (stereo not shown) : 50

Lookup: Param item = Cc1cc(C)c(N(COC(=O)C(C)(C)C)S(=O)(=O)C(F)(F)F)cc1N1CCC2(CCC(C)CC2)C1=O (stereo not shown) ; retrieve measured Soybean plant response rating.
Found: 60

Lookup: Param item = Cc1cc(C)c(C2=NOC(C(C)C)C2)cc1NS(=O)(=O)C(F)(F)F (stereo not shown) ; retrieve measured Soybean plant response rating.
Found: 50

* * *

System: ragweed (common ragweed, Ambrosia artemisiifolia)
experimental_protocol: Test A postemergence, ragweed
Assay type: in vivo
condition_details: Postemergence, 1000 g ai/ha; visual injury, 0 to 100 scale (0 no effect, 100 complete control), approx. 10 days
attribute_measured: Plant response rating, Ragweed
Keep the answer to the number alone.

1. COC(=O)C1CCN(C(=O)c2cc(NS(=O)(=O)C(F)(F)F)c(C)cc2C)CC1 [Compound 50] : 50
2. Cc1cc(C)c(C(=O)N2CCC(C)CC2)cc1NS(=O)(=O)C(F)(F)F [Compound 264] : 60
3. Cc1cc(C)c(C(=O)N2CCSCC2)cc1NS(=O)(=O)C(F)(F)F [Compound 12] : 60
4. Cc1cc(C)c(C(=O)N2CCC(C(C)(C)C)CC2)cc1NS(=O)(=O)C(F)(F)F [Compound 261] : 0

Lookup: Param item = Cc1ccc(C(=O)N2CCC(C(F)(F)F)CC2)cc1NS(=O)(=O)C(F)(F)F [Compound 263] ; retrieve measured Plant response rating, Ragweed.
Found: 0

* * *

# Kochia plant response rating listing for each entry below
System: kochia (Bassia scoparia)
experimental_protocol: Test A preemergence, kochia
Type: in vivo
condition_details: Preemergence, 125 g ai/ha; visual injury on 0 to 100 scale (0 no effect, 100 complete control), approximately 10 days
Keep the answer to the number alone.

Lookup: Param item = "Cc1c(C(=O)N2CCOCC2)cc(N(S(=O)(=O)C(F)(F)F)S(=O)(=O)C(F)(F)F)c(C)c1F" ; retrieve measured Kochia plant response rating.
Found: 80

* * *

Tested on: pigweed (Amaranthus retroflexus)
experimental_protocol: Test A preemergence, pigweed
Assay type: in vivo
condition_details: 125 g ai/ha, visual injury on 0 to 100 scale (0 no effect, 100 complete control), approximately 10 days
# Pigweed plant response rating listing for each entry below

Known Pigweed plant response rating results, listed for orientation:
1. Cc1cc(C)c(N(S(C)(=O)=O)S(=O)(=O)C(F)(F)F)cc1-c1cc(Cl)nn(C)c1=O : 0
2. Cc1cc(C)c(N(S(C)(=O)=O)S(=O)(=O)C(F)(F)F)cc1-c1cc(C(C)C)nn(C)c1=O : 0
3. Cc1cc(Cl)c(NS(=O)(=O)C(F)(F)F)cc1C(=O)N1CCC(C#N)CC1 : 90
4. Cc1cc(Cl)c(C2=NOC3(CCCC3)C2)cc1NS(=O)(=O)C(F)(F)F : 50
5. Cc1cc(C)c(N(S(=O)(=O)C(F)(F)F)S(=O)(=O)C(F)(F)F)cc1-c1cc(Cl)nn(C)c1=O : 60
6. COC1CCCN(C(=O)c2cc(N(COC(C)=O)S(=O)(=O)C(F)(F)F)c(C)cc2C)C1 (stereo not shown) : 90

Attention now shifts to the item below.
Lookup: Param item = "Cc1cc(C)c(N(S(=O)(=O)C(F)(F)F)S(=O)(=O)C(F)(F)F)cc1C1=NOC2(CCC3(CC2)OCCO3)C1" ; retrieve measured Pigweed plant response rating.
Found: 20

* * *

# Plant response rating, Goosegrass listing for each entry below
System: goosegrass (Eleusine indica)
experimental_protocol: Test A1 preemergence, goosegrass
Format: in vivo
condition_details: 125 g ai/ha, 0 to 100 scale, 0 no effect, 100 complete control

Known Plant response rating, Goosegrass results, listed for orientation:
1. Cc1cc(C)c(N(COC(=O)C(C)(C)C)S(=O)(=O)C(F)(F)F)cc1C1=NOC2OCCC12 (stereo not shown) [Compound 352] : 100
2. Cc1cc(C)c(N(COC(=O)C(C)(C)C)S(=O)(=O)C(F)(F)F)cc1C1=NOC(C(C)C)C1 (stereo not shown) [Compound 383] : 80
3. Cc1cc(C)c(N(S(=O)(=O)C(F)(F)F)S(=O)(=O)C(F)(F)F)cc1N1CCC2(CCC(C(F)(F)F)CC2)C1=O (stereo not shown) [Compound 399] : 90

Attention now shifts to the item below.
Lookup: Param item = Cc1cc(C)c(C2=NOC3OCCCC23)cc1NS(=O)(=O)C(F)(F)F (stereo not shown) [Compound 372] ; retrieve measured Plant response rating, Goosegrass.
Found: 100

* * *

# Plant response rating, Kochia listing for each entry below
Tested on: kochia (Bassia scoparia)
experimental_protocol: Test A postemergence, kochia
Type: in vivo
condition_details: Postemergence, 125 g ai/ha; visual injury approx. 10 days; 0 to 100 scale (0 no effect, 100 complete control)
Keep the answer to the number alone.

1. Cc1ccc(-c2ccnn(C)c2=O)cc1N(S(=O)(=O)C(F)(F)F)S(=O)(=O)C(F)(F)F [Compound 66] : 0
2. COc1ccnn(-c2cc(NS(=O)(=O)C(F)(F)F)c(C)cc2C)c1=O [Compound 60] : 40
3. COC1(OC)CCN(C(=O)c2cc(NS(=O)(=O)C(F)(F)F)c(C)cc2C)CC1 [Compound 101] : 10
4. CCn1nc(Cl)cc(-c2cc(N(S(C)(=O)=O)S(=O)(=O)C(F)(F)F)c(C)cc2C)c1=O [Compound 45] : 10
5. Cc1cc(C)c(-c2ccnn(CC(C)C)c2=O)cc1NS(=O)(=O)C(F)(F)F [Compound 77] : 0
6. Cc1cc(C)c(-c2ccnn(C(C)C)c2=O)cc1NS(=O)(=O)C(F)(F)F [Compound 78] : 0

Attention now shifts to the item below.
Lookup: Which Plant response rating, Kochia is reported with kochia (Bassia scoparia) for this entry: Cc1cc(C)c(N(S(=O)(=O)C(F)(F)F)S(=O)(=O)C(F)(F)F)cc1-c1cc(C(C)C)nn(C)c1=O [Compound 47] ?
Found: 0

* * *

Test system: blackgrass (Alopecurus myosuroides)
experimental_protocol: Test A postemergence, blackgrass
Assay type: in vivo
condition_details: Postemergence, 31 g ai/ha; 0 to 100 scale (0 no effect, 100 complete control)
# Plant response rating, Blackgrass listing for each entry below
Keep the answer to the number alone.

Known Plant response rating, Blackgrass results, listed for orientation:
1) Cc1cc(C)c(C2=NOC3CCCCC23)cc1NS(=O)(=O)C(F)(F)F (centres unmarked) [Compound 131] : 20
2) COC1CCCN(C(=O)c2cc(NS(=O)(=O)C(F)(F)F)c(C)c(F)c2C)C1 (centres unmarked) [Compound 98] : 20
3) CCC(=O)OCN(c1cc(C2=NOC3(CCCC3)C2)c(C)cc1C)S(=O)(=O)C(F)(F)F [Compound 144] : 0
4) COC1CCCN(C(=O)c2cc(N(C(=O)C(C)C)S(=O)(=O)C(F)(F)F)c(C)cc2C)C1 (centres unmarked) [Compound 91] : 0

Lookup: Param item = COC1CCCN(C(=O)c2cc(NS(=O)(=O)C(F)(F)F)c(C)cc2C)CC1 (centres unmarked) [Compound 137] ; retrieve measured Plant response rating, Blackgrass.
Found: 0
